Where do the numbers come from? From patent US11912693B2.

Molecular target: human sphingosine-1-phosphate receptor 1 (S1P1) (Homo sapiens (Human), UniProt P21453)
Sequence (P21453 whole entry, looked up): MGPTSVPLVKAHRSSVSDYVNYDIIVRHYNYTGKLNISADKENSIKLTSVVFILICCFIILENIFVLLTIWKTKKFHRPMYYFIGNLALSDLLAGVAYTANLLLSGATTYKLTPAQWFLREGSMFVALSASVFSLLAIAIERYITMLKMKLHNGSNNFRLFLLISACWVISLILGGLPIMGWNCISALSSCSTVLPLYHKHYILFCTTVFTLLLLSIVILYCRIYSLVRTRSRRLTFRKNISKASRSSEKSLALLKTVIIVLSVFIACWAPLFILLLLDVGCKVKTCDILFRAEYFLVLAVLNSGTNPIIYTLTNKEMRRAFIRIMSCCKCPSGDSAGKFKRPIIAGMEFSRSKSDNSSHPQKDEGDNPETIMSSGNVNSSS
Assay: Inhibition of cAMP production (HTRF cAMP HiRange), S1P1 CHO-K1 cells
Assay type: cell-based
Details: inhibition of cAMP production, S1P1 CHO-K1 cells
Provide the recorded hS1P1 cAMP pEC50 for the entries that follow.

Below, 3 compounds whose answers are already recorded.
> print(dat)
                               entry.smiles  experimental.value
1   CC(C)Cn1nnc2cc(-c3nc4c(Br)cccc4o3)ccc21                <6.5
2  Cn1cnc2ccc(-c3nnc(-c4ccc(NCC(F)F)c(C#N)c4)o3)cc21                >6.5
3    Cc1ccc2oc(-c3ccc4c(c3)nnn4CC(C)C)nc2c1                >6.5

Could I get hS1P1 cAMP pEC50 for every one of these entries?
1. CCC1(CC)CC(=O)c2cc(-c3nnc(-c4cccnc4)s3)ccc2O1
2. CCC1(CC)CC(=O)c2cc(-c3nc(-c4ccc(NC(C)=O)cc4OC(F)(F)F)no3)ccc2O1

1: >6.5; 2: >6.5

* * *

System: paclitaxel induced peripheral neuropathy
Assay: Reversal of allodynia induced by paclitaxel in mice (s.c. or p.o., von Frey frequency method)
Format: in vivo, c57bl/6 mice
Conditions: Mus musculus, sc, 0.5 h, 1 mg/kg s.c., tested 30 min after dosing, read-out: Screen @ 1 mg/kg sc (% MPE)
EXPERIMENTAL_READOUT: inhibition in vivo at 1 mg/kg

Below, 2 molecules whose answers are already recorded.
> print(dat)
                               entry.smiles           experimental.readout  experimental.value
1  CCC1(CC)CC(=O)c2cc(-c3nc(-c4ccc5c(c4)nnn5C(C)C)no3)ccc2O1  inhibition in vivo at 1 mg/kg               > 50%
2  C=CCNc1ccc(-c2nc(-c3ccc4sc(N)nc4c3)no2)cc1C#N  inhibition in vivo at 1 mg/kg               > 50%

Could I get inhibition in vivo at 1 mg/kg for every one of these entries?
1. COc1ccccc1-c1nc(-c2ccc3c(c2)nnn3C(C)C)no1
2. C=CCNc1ccc(-c2nc(-c3ccc4c(c3)CC(=O)N4)no2)cc1C#N
3. CCC1(CC)CC(=O)c2cc(-c3nc(-c4ccc(C(=O)NC)cc4)no3)ccc2O1

< 50%
> 50%
> 50%

Could I get inhibition in vivo at 1 mg/kg for every one of these entries?
1. C=CCNc1ccc(-c2nc(-c3ccc4[nH]cnc4c3)no2)cc1C#N
2. Cc1cnccc1-c1nc(-c2ccc3c(ccn3C(C)C)c2)no1
3. C=CCNc1ccc(-c2nc(-c3ccc(NS(C)(=O)=O)cc3)no2)cc1C#N
4. CC(C)n1nnc2cc(-c3nc(-c4cccc5c4OCCC5)no3)ccc21
5. Cc1cnccc1-c1nc(-c2ccc3c(c2)nnn3C(C)C)no1
6. COc1ccccc1-c1coc(-c2ccc3c(c2)nnn3C(C)C)n1
7. COc1ccc(-c2noc(-c3ccc4c(c3)nnn4C(C)C)n2)c(C)c1
8. CCC1(CC)CC(=O)c2cc(-c3nc(-c4cccnc4)no3)ccc2O1

> 50%
> 50%
< 50%
> 50%
< 50%
> 50%
< 50%
> 50%
